The variants listed here are annotated with their protein stability index.
B1: TRIM43 (parent)
chain: NNSWIRKNSTMVNSEDIFLLLCLK

Variants of: B1
Experiment: protein stability index of a GFP-peptide fusion (GPS, HEK-293T) (PSI 1-6); higher = more stable;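 further: lentivirally expressed fusions sorted by FACS into six bins by GFP to DsRed ratio, PSI derived from sequencing read proportions per bin multiplied by bin number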
Conditions: c terminus: a fixed tail appended
PARAMETER_MEASURED: protein stability index

{"SEQUENCE_TEXT": "NNSWIRKNSTMVNSEDIFLNLCLK [L20N]", "PARAMETER_MEASURED": "protein stability index", "ENDPOINT_RESULT": 3}
{"SEQUENCE_TEXT": "NNSWNRKNSTMVNSEDIFLLLCLK [I5N]", "PARAMETER_MEASURED": "protein stability index", "ENDPOINT_RESULT": 3.07}
{"SEQUENCE_TEXT": "NNSWIRKNSTMVNSEDIFLLLCLV [K24V]", "PARAMETER_MEASURED": "protein stability index", "ENDPOINT_RESULT": 2.38}
{"SEQUENCE_TEXT": "NNSWIRKNSTMVNSEDIQLLLCLK [F18Q]", "PARAMETER_MEASURED": "protein stability index", "ENDPOINT_RESULT": 2.5}
{"SEQUENCE_TEXT": "NNSWIRKNSTMVNSEDSFLLLCLK [I17S]", "PARAMETER_MEASURED": "protein stability index", "ENDPOINT_RESULT": 2.6}
{"SEQUENCE_TEXT": "NESWIRKNSTMVNSEDIFLLLCLK [N2E]", "PARAMETER_MEASURED": "protein stability index", "ENDPOINT_RESULT": 3.2}
{"SEQUENCE_TEXT": "NNSWIRKNSTMVNEEDIFLLLCLK [S14E]", "PARAMETER_MEASURED": "protein stability index", "ENDPOINT_RESULT": 2.08}
{"SEQUENCE_TEXT": "NNSWIRKNSTMVNSIDIFLLLCLK [E15I]", "PARAMETER_MEASURED": "protein stability index", "ENDPOINT_RESULT": 2.72}
{"SEQUENCE_TEXT": "NNSWIRDNSTMVNSEDIFLLLCLK [K7D]", "PARAMETER_MEASURED": "protein stability index", "ENDPOINT_RESULT": 2.54}
{"SEQUENCE_TEXT": "NNSWIRKNSTMVNSEDILLLLCLK [F18L]", "PARAMETER_MEASURED": "protein stability index", "ENDPOINT_RESULT": 2.54}
{"SEQUENCE_TEXT": "NNSWIRKNSTMVNSEDIFLLLNLK [C22N]", "PARAMETER_MEASURED": "protein stability index", "ENDPOINT_RESULT": 2.32}
{"SEQUENCE_TEXT": "NNSWIRKNSTMVNSEDIFLLLCAK [L23A]", "PARAMETER_MEASURED": "protein stability index", "ENDPOINT_RESULT": 2.83}
{"SEQUENCE_TEXT": "NNSWIRKNSTMVNSEDINLLLCLK [F18N]", "PARAMETER_MEASURED": "protein stability index", "ENDPOINT_RESULT": 1.54}
{"SEQUENCE_TEXT": "NNSWIRKRSTMVNSEDIFLLLCLK [N8R]", "PARAMETER_MEASURED": "protein stability index", "ENDPOINT_RESULT": 3.47}
{"SEQUENCE_TEXT": "NNSWIRKNSTMVNSEDIFLLLCLE [K24E]", "PARAMETER_MEASURED": "protein stability index", "ENDPOINT_RESULT": 4.39}
{"SEQUENCE_TEXT": "NNSWIRKNSTMVNSEDIFLLLALK [C22A]", "PARAMETER_MEASURED": "protein stability index", "ENDPOINT_RESULT": 1.91}
{"SEQUENCE_TEXT": "NNSFIRKNSTMVNSEDIFLLLCLK [W4F]", "PARAMETER_MEASURED": "protein stability index", "ENDPOINT_RESULT": 2.91}
